# Measured Target: Human immunodeficiency virus type 1 reverse transcriptase (Human immunodeficiency virus 1, UniProt Q72547)
pIC50: −log10 of the molar value.
Recorded pIC50 for the following compounds

Smiles Input: Cc1cc(C)c(Oc2nn(Nc3ccc(C#N)cc3)c(=O)c3ccccc23)c(C)c1
pIC50: 3.03
//
Smiles Input: Cc1cc(C)c(Nc2ccnc(Nc3ccc(C#N)cc3)n2)c(C)c1
pIC50: 5.60
//
Smiles Input: Cc1cc(C)c(Nc2ccc(=O)n(Nc3ccc(C#N)cc3)n2)c(C)c1
pIC50: 3.26
//
Smiles Input: Cc1cc(C)c(Nc2ccc(=O)n(Nc3ccc(C#N)cc3)c2)c(C)c1
pIC50: 3.12
//
Smiles Input: Cc1cc(C)c(Oc2ccc(=O)n(Nc3ccc(C#N)cc3)n2)c(C)c1
pIC50: 4.00

###

Listing of entries alongside the reported pEC50.
# Tested on: Human immunodeficiency virus 1
# Test Summary: Antiviral activity against wild type HIV1 BaL in human TZM-b1 cells after 48 hrs by luciferase assay
# Type: functional, organism-based
# Measurement Setup: Human immunodeficiency virus 1, BaL, TZM-b1, 48 h
pEC50: −log10 of the molar value.
Quantity Name: pEC50

Smiles Input: Cc1cc(Br)cc(C)c1Oc1ccc(=O)n(Nc2ccc(Cl)cc2)n1
Value Relation Sign: =
Obs Value: 5.50
--
Smiles Input: Cc1cc(Cl)cc(C)c1Oc1ccc(=O)n(Nc2ccc(C#N)cc2)n1
Value Relation Sign: =
Obs Value: 6.22
--
Smiles Input: Cc1cc(C)c(Oc2nn(Nc3ccc(C#N)cc3)c(=O)c3ccccc23)c(C)c1
Value Relation Sign: =
Obs Value: 5.86
--
Smiles Input: Cc1cc(C)c(Oc2ccc(=O)n(Nc3cccc(C#N)c3)n2)c(C)c1
Value Relation Sign: <
Obs Value: 5.00
--
Smiles Input: Cc1cc(C)c(Nc2ccc(=O)n(Nc3ccccc3)c2)c(C)c1
Value Relation Sign: <
Obs Value: 5.00
--
Smiles Input: Cc1cc(C)c(Oc2ccc(=O)n(Nc3ccc(C(F)(F)F)cc3)n2)c(C)c1
Value Relation Sign: =
Obs Value: 5.00
--
Smiles Input: Cc1cc(C)c(Nc2ccc(=O)n(Nc3ccc(C#N)cc3)n2)c(C)c1
Value Relation Sign: =
Obs Value: 5.86
--
Smiles Input: Cc1cccc(C)c1Oc1ccc(=O)n(Nc2ccc(C#N)cc2)n1
Value Relation Sign: =
Obs Value: 5.12
--
Smiles Input: Cc1cc(C)c(Nc2ccc(=O)n(Nc3cccc(C#N)c3)n2)c(C)c1
Value Relation Sign: <
Obs Value: 5.00
--
Smiles Input: N#Cc1ccc(Nc2ccc(=O)n(Nc3ccc(C#N)cc3)c2)cc1
Value Relation Sign: <
Obs Value: 5.00
--
Smiles Input: Cc1cc(C)c(Nc2ccc(=O)n(Nc3ccc(C(F)(F)F)cc3)c2)c(C)c1
Value Relation Sign: <
Obs Value: 5.00
--
Smiles Input: Cc1cc(C)c(Nc2ccc(=O)n(Nc3ccc(C(F)(F)F)cc3)n2)c(C)c1
Value Relation Sign: <
Obs Value: 5.00
--
Smiles Input: Cc1cc(C)c(Oc2ccc(=O)n(Nc3ccc(F)cc3)n2)c(C)c1
Value Relation Sign: =
Obs Value: 5.02
--
Smiles Input: Cc1cc(C)c(Nc2ccnc(Nc3ccc(C#N)cc3)n2)c(C)c1
Value Relation Sign: =
Obs Value: 8.70
--
Smiles Input: Cc1cc(C)c(Nc2ccc(=O)n(Nc3cccc(C#N)c3)c2)c(C)c1
Value Relation Sign: <
Obs Value: 5.00
--
Smiles Input: Cc1cc(C#N)cc(C)c1Oc1ccc(=O)n(Nc2ccc(C#N)cc2)n1
Value Relation Sign: =
Obs Value: 5.76
--
Smiles Input: Cc1cc(C)c(Oc2ccc(=O)n(Nc3ccc(Cl)cc3)n2)c(C)c1
Value Relation Sign: =
Obs Value: 5.40
--
Smiles Input: N#Cc1ccc(Nn2cc(Nc3ccccc3)ccc2=O)cc1
Value Relation Sign: <
Obs Value: 5.00
--
Smiles Input: O=c1ccc(Nc2ccccc2)cn1Nc1ccccc1
Value Relation Sign: <
Obs Value: 5.00
--
Smiles Input: Cc1cccc(C)c1Oc1ccc(=O)n(Nc2cccc(C#N)c2)n1
Value Relation Sign: <
Obs Value: 5.00
--
Smiles Input: Cc1cc(Br)cc(C)c1Oc1ccc(=O)n(Nc2ccc(C#N)cc2)n1
Value Relation Sign: =
Obs Value: 6.19
--
Smiles Input: Cc1cc(Cl)cc(C)c1Oc1nn(Nc2ccc(C#N)cc2)c(=O)c2ccccc12
Value Relation Sign: =
Obs Value: 5.44
--
Smiles Input: Cc1cccc(C)c1Oc1ccc(=O)n(Nc2ccccc2)n1
Value Relation Sign: <
Obs Value: 5.00
--
Smiles Input: Cc1cccc(C)c1Oc1ccc(=O)n(Nc2ccc(F)cc2)n1
Value Relation Sign: <
Obs Value: 5.00
--
Smiles Input: Cc1cc(Cl)cc(C)c1Oc1ccc(=O)n(Nc2cccc(C#N)c2)n1
Value Relation Sign: <
Obs Value: 5.30
--
Smiles Input: Cc1cc(C)c(Oc2ccc(=O)n(Nc3ccc(C#N)cc3)n2)c(C)c1
Value Relation Sign: =
Obs Value: 6.16
--
Smiles Input: Cc1cc(C#N)cc(C)c1Oc1ccc(=O)n(Nc2cccc(C#N)c2)n1
Value Relation Sign: <
Obs Value: 5.00
--
Smiles Input: Cc1cc(C)c(Nc2ccc(=O)n(Nc3ccc(C#N)cc3)c2)c(C)c1
Value Relation Sign: <
Obs Value: 5.00
--
Smiles Input: Cc1cc(Cl)cc(C)c1Oc1nn(Nc2ccc(Cl)cc2)c(=O)c2ccccc12
Value Relation Sign: =
Obs Value: 5.00
